molecular target: T1, His-labeled human CD3E (human, UniProt P07766 23-126); experiment: BLI (Octet), method of Example 3: His-labeled human CD3E on Ni-NTA sensors
T1 construct: also called human CD3E antigen; antigen CD3E; not shown: His label
T1 sequence (P07766 23-126): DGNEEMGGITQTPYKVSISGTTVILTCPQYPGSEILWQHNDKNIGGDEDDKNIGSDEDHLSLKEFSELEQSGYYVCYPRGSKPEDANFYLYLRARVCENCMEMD
experimental-endpoint: pKd
pKd here is simply -log10 of the concentration when that concentration is written in mol/L.

Use the examples below as a reference point.
{"binder": "humanized antibody AB625 (antibody, V domains shown) VH: EVQLLESGGGLVQPGGSLKLSCAASGFTFNTYAMNWVRQAPGKGLEWVGRIRSKINNYATYYADSVKDRFTISRDDSKNTAYLQMNNLKTEDTAMYYCVRHDNFYGSTHSWFADWGQGTLVTVSS VL: ELVVTQEPSLTVSPGGTVTLTCRSSTGVVTTSNYANWVQEKPDHLFTGLIGATNYRAPGTPARFSGSLLGGKAALTLSGVQPEDEAIYFCVLWYSNHWVFGGGTKLTVL", "pKd": 8.74}
{"binder": "humanized antibody AB620 (antibody, V domains shown) VH: EVQLLESGGGLVQPGGSLKLSCAASGFTFDTYAMNWVRQAPGKGLEWVGRIRSKINNYATYYADSVKDRFTISRDDSKNTAYLQMNNLKTEDTAMYYCVRHDNFYGSTYSWFADWGQGTLVTVSS VL: ELVVTQEPSLTVSPGGTVTLTCRSSTGVVTTSNYANWVQEKPDHLFTGLIGATDYRAPGTPARFSGSLLGGKAALTLSGVQPEDEAIYFCVLWYSNHWVFGGGTKLTVL", "pKd": 9.77}

// below: pKd requested for another binder
### Prompt Answer with the recorded pKd of humanized antibody AB621 (antibody, V domains shown) VH: EVQLLESGGGLVQPGGSLKLSCAASGFTFNTYAMNWVRQAPGKGLEWVGRIRSKINNYATYYADSVKDRFTISRDDSKNTAYLQMNNLKTEDTAMYYCVRHDNFYGSTYSWFADWGQGTLVTVSS VL: ELVVTQEPSLTVSPGGTVTLTCRSSTGVVTTSNHANWVQEKPDHLFTGLIGATNYRAPGTPARFSGSLLGGKAALTLSGVQPEDEAIYFCVLWYSNHWVFGGGTKLTVL only.
### Response 8.67
